The measured values listed here are drawn from patent US20220119518A1.

# tgt: T1, Antigen CD66c (CEACAM6; Sino Biological, Inc.) (UniProt P40199 35-320)
# T1 construct: Bought antigen, coated on the ELISA plate; construct not described; also called CECACAM6 (CD66c) antigen; CD66c antigen
# T1 sequence (looked up): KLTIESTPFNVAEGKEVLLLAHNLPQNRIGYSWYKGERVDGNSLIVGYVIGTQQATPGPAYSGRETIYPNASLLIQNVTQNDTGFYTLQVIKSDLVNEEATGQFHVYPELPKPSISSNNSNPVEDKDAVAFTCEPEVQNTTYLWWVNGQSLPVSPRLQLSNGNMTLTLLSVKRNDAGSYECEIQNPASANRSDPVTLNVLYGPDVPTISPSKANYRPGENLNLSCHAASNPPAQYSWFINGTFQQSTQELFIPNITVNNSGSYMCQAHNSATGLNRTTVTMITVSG
# protocolNotes: ELISA, CEACAM6 coated 100 ng/well, antibody at 4.57 ng/ml
Please note: Condition met applies when OD 450 nm is 0.7 OD 450 nm or greater, and Condition not met applies otherwise.

Below are worked cases with known answers.
recombinant humanized anti-CD66c antibody Protein ID 3043 (Vk8 + VH6) (antibody, V domains shown, also called hu 3043; #71) VH: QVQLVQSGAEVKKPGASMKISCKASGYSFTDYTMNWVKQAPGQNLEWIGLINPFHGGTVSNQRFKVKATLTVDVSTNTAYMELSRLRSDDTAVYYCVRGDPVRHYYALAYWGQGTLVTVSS VL: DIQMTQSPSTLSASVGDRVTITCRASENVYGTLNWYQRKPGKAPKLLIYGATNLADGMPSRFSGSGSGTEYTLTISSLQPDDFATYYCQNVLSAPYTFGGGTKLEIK	Condition met
recombinant humanized anti-CD66c antibody Protein ID 3058 (Vk8 + VH11) (antibody, human IgG1, V domains shown, also called hu 3058; #86) VH: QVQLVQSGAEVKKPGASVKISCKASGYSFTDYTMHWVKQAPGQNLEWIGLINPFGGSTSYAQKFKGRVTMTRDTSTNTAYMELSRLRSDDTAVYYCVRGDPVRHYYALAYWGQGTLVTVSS VL: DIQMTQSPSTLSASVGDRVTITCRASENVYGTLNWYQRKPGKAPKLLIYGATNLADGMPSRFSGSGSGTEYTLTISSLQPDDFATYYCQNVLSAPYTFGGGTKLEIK	Condition met

Could you please find out whether recombinant humanized anti-CD66c antibody Protein ID 2938 (Vk5 + VH7) (antibody, human IgG1, V domains shown, also called hu 2938) VH: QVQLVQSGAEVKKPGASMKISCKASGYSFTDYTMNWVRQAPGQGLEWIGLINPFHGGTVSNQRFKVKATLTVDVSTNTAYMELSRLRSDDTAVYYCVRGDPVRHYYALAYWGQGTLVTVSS VL: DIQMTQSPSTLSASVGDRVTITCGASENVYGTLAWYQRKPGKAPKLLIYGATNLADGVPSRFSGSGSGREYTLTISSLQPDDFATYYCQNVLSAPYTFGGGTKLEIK has OD 450 nm that meets 0.7 OD 450 nm or exceeds it?
Condition not met

Reported OD 450 nm reaches at least 0.7 OD 450 nm for recombinant humanized anti-CD66c antibody Protein ID 3007 (Vk7 + VH6) (antibody, human IgG1, V domains shown, also called hu 3007; #43) VH: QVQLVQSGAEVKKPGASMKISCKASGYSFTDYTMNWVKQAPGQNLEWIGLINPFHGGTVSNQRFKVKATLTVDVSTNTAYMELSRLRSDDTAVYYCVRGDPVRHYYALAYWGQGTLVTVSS VL: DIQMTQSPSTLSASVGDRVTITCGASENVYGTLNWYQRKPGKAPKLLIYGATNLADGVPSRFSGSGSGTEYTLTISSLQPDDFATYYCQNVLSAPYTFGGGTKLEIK ?
Condition met

Check if OD 450 nm >= 0.7 OD 450 nm (inclusive). Item: anti-CD66c chimeric antibody 8F5 (antibody, human IgG1, V domains shown, also called chimeric 8F5; chi 8F5) VH: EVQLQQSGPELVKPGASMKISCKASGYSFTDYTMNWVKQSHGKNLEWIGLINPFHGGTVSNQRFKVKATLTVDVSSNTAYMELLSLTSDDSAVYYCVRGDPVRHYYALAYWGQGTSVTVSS VL: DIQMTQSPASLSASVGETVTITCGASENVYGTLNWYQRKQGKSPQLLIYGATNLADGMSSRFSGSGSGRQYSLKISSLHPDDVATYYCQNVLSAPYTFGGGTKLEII
Condition met

Does OD 450 nm meet or surpass 0.7 OD 450 nm for recombinant humanized anti-CD66c antibody Protein ID 3019 (Vk7 + VH10) (antibody, human IgG1, V domains shown, also called hu 3019; #51) VH: QVQLVQSGAEVKKPGASVKVSCKASGYSFTDYTMNWVKQAPGQNLEWIGLINPFHGGTVSNQRFKVKATMTVDVSTNTAYMELSRLRSDDTAVYYCVRGDPVRHYYALAYWGQGTLVTVSS VL: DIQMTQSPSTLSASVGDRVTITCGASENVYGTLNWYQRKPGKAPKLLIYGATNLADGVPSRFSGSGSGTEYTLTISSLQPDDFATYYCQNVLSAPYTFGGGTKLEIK ?
Condition met
